Target Entity: human NTCP (Homo sapiens)
Experimental Protocol: Screening taurocholate uptake assay (96-well, [14C]taurocholate, 10 µM drug)
Reported Conditions: combined ranking from functional and binding assay B-scores
Counter-ions that a name gives are not always drawn.
Below is a list of entries, each paired with its recorded Ranking score value.
Property Measured: Ranking score

>  <Compound>
CC(=O)c1ccc(S(=O)(=O)NC(=O)NC2CCCCC2)cc1 [Acetohexamide]

>  <Result>
875.07

$$$$
>  <Compound>
CN(c1nccc(=O)[nH]1)C1CCN(c2nc3ccccc3n2Cc2ccc(F)cc2)CC1 [Mizolastine]

>  <Result>
877.518

$$$$
>  <Compound>
O=C(NCNC(=O)NC1C(=O)NC(=O)N1CO)NC1C(=O)NC(=O)N1CO (stereo not drawn) [Imidurea]

>  <Result>
960.608

$$$$
>  <Compound>
c1ccc(CN(CC2=NCCN2)c2ccccc2)cc1 [Antazoline hydrochloride]

>  <Result>
927.719

$$$$
>  <Compound>
c1ccc([C@H]2CN3CCSC3=N2)cc1 [Levamisole hydrochloride]

>  <Result>
1002.84

$$$$
>  <Compound>
CC[C@@]1(O)C(=O)OCc2c1cc1n(c2=O)Cc2cc3ccccc3nc2-1 [Camptothecine (S,+)]

>  <Result>
879.695

$$$$
>  <Compound>
CC(C)(Oc1ccc(Cl)cc1)C(=O)O [Clofibric acid]

>  <Result>
881.708

$$$$
>  <Compound>
CCOC(=O)[C@@](C)(N)Cc1ccc(O)c(O)c1 [Methyldopate hydrochloride]

>  <Result>
1088.5

$$$$
>  <Compound>
Nc1nc(=O)n([C@@H]2CS[C@H](CO)O2)cc1F [(-)-Emtricitabine]

>  <Result>
1006

$$$$

----------
Here the recorded Ranking score is given for each entry.
Target Entity: human NTCP (Homo sapiens, UniProt Q14973)
Sequence (Q14973 1-349): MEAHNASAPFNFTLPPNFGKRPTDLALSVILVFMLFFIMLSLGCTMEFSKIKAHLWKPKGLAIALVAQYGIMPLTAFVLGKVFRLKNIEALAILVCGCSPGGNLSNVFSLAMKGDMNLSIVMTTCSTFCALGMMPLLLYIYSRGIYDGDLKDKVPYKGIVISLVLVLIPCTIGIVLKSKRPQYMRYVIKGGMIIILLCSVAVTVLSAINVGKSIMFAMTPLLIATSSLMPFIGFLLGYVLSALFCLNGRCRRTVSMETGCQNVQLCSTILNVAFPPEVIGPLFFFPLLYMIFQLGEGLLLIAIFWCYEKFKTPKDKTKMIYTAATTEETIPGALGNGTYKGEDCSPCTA
Experimental Protocol: Screening taurocholate uptake assay (96-well, [14C]taurocholate, 10 µM drug)
Reported Conditions: combined ranking from functional and binding assay B-scores
Structures can show the parent of a compound that is named as a salt.

>  <Molecule>
Nc1ncn([C@@H]2O[C@H](CO)[C@@H](O)[C@H]2O)c(=O)n1 [Azacytidine-5]

>  <Ranking score>
847.665

$$$$
>  <Molecule>
CNCCC=C1c2ccccc2CCc2ccccc21 [Nortriptyline hydrochloride]

>  <Ranking score>
1101.36

$$$$
>  <Molecule>
CN(Cc1ccc(C(C)(C)C)cc1)Cc1cccc2ccccc12 [Butenafine Hydrochloride]

>  <Ranking score>
986.495

$$$$
>  <Molecule>
O=C(O)c1ccccc1C(=O)Nc1ccc(S(=O)(=O)Nc2nccs2)cc1 [Phthalylsulfathiazole]

>  <Ranking score>
1099.94

$$$$
>  <Molecule>
CN1C(=O)CCS(=O)(=O)C1c1ccc(Cl)cc1 (stereo not shown) [Chlormezanone]

>  <Ranking score>
979.274

$$$$
>  <Molecule>
CC(COc1ccccc1)NC(C)C(O)c1ccc(O)cc1 (stereo not shown) [Isoxsuprine hydrochloride]

>  <Ranking score>
888.476

$$$$
>  <Molecule>
CCCC(=O)Nc1ccc(OCC(O)CNC(C)C)c(C(C)=O)c1 (stereo not shown) [Acebutolol hydrochloride]

>  <Ranking score>
904.34

$$$$
>  <Molecule>
CCOC(=O)[C@H](CCc1ccccc1)N[C@@H](C)C(=O)N1Cc2ccccc2C[C@H]1C(=O)O [Quinapril HCl]

>  <Ranking score>
1103.9

$$$$
>  <Molecule>
[H]/N=C(/NCCCCC)N/N=C/c1c[nH]c2ccc(OC)cc12 [Tegaserod maleate]

>  <Ranking score>
947.847

$$$$
>  <Molecule>
Cc1cc2c(cc1S(N)(=O)=O)S(=O)(=O)CCC2 [Meticrane]

>  <Ranking score>
878.911

$$$$
>  <Molecule>
CC(CN1c2ccccc2Sc2ccccc21)N(C)C (stereo not shown) [Promethazine hydrochloride]

>  <Ranking score>
866.133

$$$$
>  <Molecule>
CC[C@H]1OC(=O)C[C@@H](O)[C@H](C)[C@@H](O[C@@H]2O[C@H](C)[C@@H](O[C@H]3C[C@@](C)(O)[C@@H](O)[C@H](C)O3)[C@H](N(C)C)[C@H]2O)[C@@H](CC=O)C[C@@H](C)C(=O)/C=C/C(C)=C/[C@@H]1CO[C@@H]1O[C@H](C)[C@@H](O)[C@@H](OC)[C@H]1OC [Tylosin]

>  <Ranking score>
978.04

$$$$
>  <Molecule>
Clc1ccc(C(Cn2ccnc2)OCc2c(Cl)cccc2Cl)c(Cl)c1 (stereo not shown) [Isoconazole]

>  <Ranking score>
1126.41

$$$$

----------
Target Entity: human NTCP (Homo sapiens)
Experimental Protocol: Screening fluorescent competitive Myrcludex B-FITC binding assay (96-well, 10 µM drug)
Reported Conditions: screen, 10 µM drug, Myrcludex B-FITC binding
Where a name gives a salt, the structure may show the parent alone.
Each record is given fulfilled if its reported B-score binding assay is strictly below -0.1. Records at or above -0.1 are given not fulfilled.

>  <Molecule>
C#C[C@]1(O)CC[C@H]2[C@@H]3CCC4=CC(=O)CCC4=C3C=C[C@@]21CC

>  <Target Entity>
human NTCP (Homo sapiens)

>  <Label Class>
fulfilled

$$$$
>  <Molecule>
CC(=O)[C@H]1CC[C@H]2[C@@H]3C[C@H](C)C4=CC(=O)CC[C@]4(C)[C@H]3[C@@H](O)C[C@]12C

>  <Target Entity>
human NTCP (Homo sapiens)

>  <Label Class>
fulfilled

$$$$
>  <Molecule>
Nc1nc(O)c2ncn(COC(CO)CO)c2n1

>  <Target Entity>
human NTCP (Homo sapiens)

>  <Label Class>
not fulfilled

$$$$
>  <Molecule>
C#C[C@]1(O)CC[C@H]2[C@@H]3CCC4=Cc5oncc5C[C@]4(C)[C@H]3CC[C@@]21C

>  <Target Entity>
human NTCP (Homo sapiens)

>  <Label Class>
fulfilled

$$$$
>  <Molecule>
O=C(O)CCc1nc(-c2ccccc2)c(-c2ccccc2)o1

>  <Target Entity>
human NTCP (Homo sapiens)

>  <Label Class>
fulfilled

$$$$
>  <Molecule>
O=C1CN(/N=C/c2ccc(-c3ccc([N+](=O)[O-])cc3)o2)C(=O)[N-]1.[Na+] [Dantrolene sodium salt]

>  <Target Entity>
human NTCP (Homo sapiens)

>  <Label Class>
fulfilled

$$$$
>  <Molecule>
CCN(CC)CCCC(C)Nc1c2ccc(Cl)cc2nc2ccc(OC)cc12.Cl.Cl (stereo not drawn) [Quinacrine dihydrochloride hydrate]

>  <Target Entity>
human NTCP (Homo sapiens)

>  <Label Class>
not fulfilled

$$$$
>  <Molecule>
CCN1CCCC(OC(=O)C(c2ccccc2)c2ccccc2)C1 (stereo not drawn) [Piperidolate hydrochloride]

>  <Target Entity>
human NTCP (Homo sapiens)

>  <Label Class>
fulfilled

$$$$
>  <Molecule>
CC(=O)OCC1=C(C(=O)O)N2C(=O)[C@@H](NC(=O)Cc3cccs3)[C@H]2SC1 [Cephalothin sodium salt]

>  <Target Entity>
human NTCP (Homo sapiens)

>  <Label Class>
not fulfilled

$$$$
>  <Molecule>
CCCCNC(=O)NS(=O)(=O)c1ccc(C)cc1 [Tolbutamide]

>  <Target Entity>
human NTCP (Homo sapiens)

>  <Label Class>
fulfilled

$$$$
>  <Molecule>
CCC(Cc1c(I)cc(I)c(N)c1I)C(=O)O (stereo not drawn)

>  <Target Entity>
human NTCP (Homo sapiens)

>  <Label Class>
not fulfilled

$$$$
>  <Molecule>
COc1cc([C@@H]2c3cc4c(cc3[C@@H](O[C@@H]3O[C@@H]5CO[C@@H](C)O[C@H]5[C@H](O)[C@H]3O)[C@H]3COC(=O)[C@H]23)OCO4)cc(OC)c1O [Etoposide]

>  <Target Entity>
human NTCP (Homo sapiens)

>  <Label Class>
not fulfilled

$$$$
>  <Molecule>
CN(C)CCCN1c2ccccc2Sc2ccc(C(F)(F)F)cc21 [Triflupromazine hydrochloride]

>  <Target Entity>
human NTCP (Homo sapiens)

>  <Label Class>
fulfilled

$$$$
>  <Molecule>
C[N+](C)(C)CCCCCCCCCC[N+](C)(C)C [Decamethonium bromide]

>  <Target Entity>
human NTCP (Homo sapiens)

>  <Label Class>
not fulfilled

$$$$
>  <Molecule>
COc1ccc(C(=O)N2CCCC2=O)cc1

>  <Target Entity>
human NTCP (Homo sapiens)

>  <Label Class>
fulfilled

$$$$
>  <Molecule>
COc1ccccc1N1CCN(CCCCNC(=O)c2ccc3ccccc3c2)CC1.Cl.Cl

>  <Target Entity>
human NTCP (Homo sapiens)

>  <Label Class>
fulfilled

$$$$
>  <Molecule>
COc1ccc(CN2CCN(C(c3ccc(F)cc3)c3ccc(F)cc3)CC2)c(OC)c1OC.Cl.Cl [Lomerizine hydrochloride]

>  <Target Entity>
human NTCP (Homo sapiens)

>  <Label Class>
fulfilled

$$$$
>  <Molecule>
CC[N+](C)(C)c1cccc(O)c1 [Edrophonium chloride]

>  <Target Entity>
human NTCP (Homo sapiens)

>  <Label Class>
not fulfilled

$$$$
>  <Molecule>
Cc1nc2ccc(CN(C)c3ccc(C(=O)N[C@@H](CCC(=O)O)C(=O)O)s3)cc2c(=O)[nH]1

>  <Target Entity>
human NTCP (Homo sapiens)

>  <Label Class>
not fulfilled

$$$$
>  <Molecule>
COc1cc(-c2ccc(=O)[nH]n2)ccc1OC(F)F

>  <Target Entity>
human NTCP (Homo sapiens)

>  <Label Class>
not fulfilled

$$$$
>  <Molecule>
CC(Cc1ccc(O)cc1)NCC(O)c1cc(O)cc(O)c1 (stereo not drawn) [Fenoterol hydrobromide]

>  <Target Entity>
human NTCP (Homo sapiens)

>  <Label Class>
fulfilled

$$$$
>  <Molecule>
[H]/N=C(\N/C(=N/[H])Nc1ccc(Cl)cc1)NC(C)C [Proguanil hydrochloride]

>  <Target Entity>
human NTCP (Homo sapiens)

>  <Label Class>
fulfilled

$$$$
>  <Molecule>
NCCCC[C@H](N[C@@H](CCc1ccccc1)C(=O)O)C(=O)N1CCC[C@H]1C(=O)O

>  <Target Entity>
human NTCP (Homo sapiens)

>  <Label Class>
fulfilled

$$$$
>  <Molecule>
N[C@@H](Cc1cc(I)c(Oc2cc(I)c(O)c(I)c2)c(I)c1)C(=O)O

>  <Target Entity>
human NTCP (Homo sapiens)

>  <Label Class>
fulfilled

$$$$
>  <Molecule>
O=C(O)CCC(=O)c1ccc(-c2ccccc2)cc1

>  <Target Entity>
human NTCP (Homo sapiens)

>  <Label Class>
fulfilled

$$$$
>  <Molecule>
Cc1ccc(C(=O)c2cc(O)c(O)c([N+](=O)[O-])c2)cc1

>  <Target Entity>
human NTCP (Homo sapiens)

>  <Label Class>
not fulfilled

$$$$
>  <Molecule>
CCC(=O)[C@@]1(C)[C@H](C)C[C@H]2[C@@H]3CCC4=CC(=O)C=C[C@]4(C)[C@H]3[C@@H](O)C[C@@]21C [Rimexolone]

>  <Target Entity>
human NTCP (Homo sapiens)

>  <Label Class>
fulfilled

$$$$
>  <Molecule>
CCCN[C@H]1CCc2nc(N)sc2C1 [Pramipexole dihydrochloride]

>  <Target Entity>
human NTCP (Homo sapiens)

>  <Label Class>
fulfilled

$$$$
>  <Molecule>
CC(=O)OCC(=O)[C@@]1(O)CC[C@H]2[C@@H]3CCC4=CC(=O)CC[C@]4(C)[C@@]3(F)[C@@H](O)C[C@@]21C [Fludrocortisone acetate]

>  <Target Entity>
human NTCP (Homo sapiens)

>  <Label Class>
fulfilled

$$$$
>  <Molecule>
CC(CN(C)C)CN1c2ccccc2Sc2ccccc21.CC(CN(C)C)CN1c2ccccc2Sc2ccccc21.O=C(O)C(O)C(O)C(=O)O (stereo not drawn) [Trimeprazine tartrate]

>  <Target Entity>
human NTCP (Homo sapiens)

>  <Label Class>
fulfilled

$$$$
>  <Molecule>
COC(=O)C1=C(C#N)NC(C)=C(C(=O)OC(C)C)C1c1cccc([N+](=O)[O-])c1 (stereo not drawn)

>  <Target Entity>
human NTCP (Homo sapiens)

>  <Label Class>
not fulfilled

$$$$
>  <Molecule>
CC(N/C(=N\C#N)Nc1ccncc1)C(C)(C)C (stereo not drawn)

>  <Target Entity>
human NTCP (Homo sapiens)

>  <Label Class>
fulfilled

$$$$
>  <Molecule>
Clc1ccc(C(c2ccccc2Cl)C(Cl)Cl)cc1 (stereo not drawn)

>  <Target Entity>
human NTCP (Homo sapiens)

>  <Label Class>
not fulfilled

$$$$

Source: paper PMC5681660
